The reported numbers originate from the supplement of paper PMC11208160.

experiment: recombinant barcode read abundance after kanamycin selection (control-corrected) (log10(CPM+1)); higher = more efficient recombination; sequences stand for … in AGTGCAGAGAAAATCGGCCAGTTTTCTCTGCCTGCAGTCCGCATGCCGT…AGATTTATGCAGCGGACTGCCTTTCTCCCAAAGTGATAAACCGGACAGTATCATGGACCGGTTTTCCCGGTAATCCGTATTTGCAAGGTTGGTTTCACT; site = the 11-nt target;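 further: IS621 recombinase and bridge RNA in Escherichia coli cells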
For each entry below, report its recombinant barcode read abundance (log10) value.
Answer with the value's number alone.

Q: I would be grateful if you could share the reported recombinant barcode read abundance (log10) for TACTACCCTTGGGTTCTAACCTGTTGCCT (site TTCTACCCTAG) .
Result: 0.0291

Q: So what does the record say about recombinant barcode read abundance (log10) for ATCCAGCCTTGGGTTCTAACCTGTTGCCT (site ATCCAGCCTAG) ?
Result: 1.7

Q: Which measured recombinant barcode read abundance (log10) value corresponds to TAGGCTCCTTGGGTTCTAACCTGTTGCAG (site TAGGCTCCTGT) ?
Result: 0.0237

Q: Would you kindly share the measured recombinant barcode read abundance (log10) for AAGCATGCTTGGGTTCTAACCTGTTGCTA (site AAGCATGCTTA) ?
Result: 0.883

Q: Name the reported recombinant barcode read abundance (log10) value associated with the sequence GACTTGTCTTGGGTTCTAACCTGTTGCGG (site GACTCATCTCC)
Result: 0

Q: Query: recombinant barcode read abundance (log10); subject: GGAGACGCTTGGGTTCTAACCTGTTGCCT (site GGAGAAGCTAG)
Result: 0.344
